- MEASURED_ON: Ribonuclease A (RNase A) (Bos taurus)
- Construct: purchased Sigma (St. Louis, Mo.) R5503
- ASSAY_NOTES: Multipole Coupling Spectroscopy (MCS) binding titration of CMP ligands with RNase A
- CONDITION_NOTES: 27° C.; 1 mM RNase A; pH 6.0 Bis-Tris buffer; vs ligand-to-protein ratio; read-out: KD from fit of change in impedance (Zi, imaginary part of impedance), FIG. 11E
ASSAY_ENDPOINT: Kd (µM)
Please give a number only; it is taken to be in µM.

# input State recorded Kd with Ribonuclease A (RNase A) (Bos taurus), entry Nc1ccn([C@@H]2O[C@H](CO)[C@@H](O)[C@H]2OP(=O)(O)O)c(=O)n1 [2′-CMP, cytidine 2′-monophosphate free acid] , no comment.
# output 11

# input Would you please give the reported Kd of Nc1ccn([C@@H]2O[C@H](CO)[C@@H](OP(=O)(O)O)[C@H]2O)c(=O)n1 [3′-CMP, cytidine 3′-monophosphate free acid] with Ribonuclease A (RNase A) (Bos taurus)?
# output 75

###

- MEASURED_ON: Ribonuclease A (RNase A) (Bos taurus, UniProt P61823)
- Construct: purchased Sigma (St. Louis, Mo.) R5503
- Sequence (P61823 27-150): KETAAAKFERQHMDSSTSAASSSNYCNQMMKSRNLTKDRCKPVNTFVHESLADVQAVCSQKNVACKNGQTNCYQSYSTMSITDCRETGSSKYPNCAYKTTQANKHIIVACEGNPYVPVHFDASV
- ASSAY_NOTES: Multipole Coupling Spectroscopy (MCS) binding titration of CMP ligands with RNase A
- CONDITION_NOTES: 27° C.; 1 mM RNase A; pH 6.0 Bis-Tris buffer; 1.3 GHz; vs ligand concentration; read-out: KD from fit of absolute permittivity values (e′ real part of permittivity), FIG. 11A
Would you mind telling me the reported Kd of each entry?
Dear colleague, please return just the value in µM, with no unit written.

# input Please supply the value of reported Kd for the item Nc1ccn([C@@H]2O[C@H](CO)[C@@H](O)[C@H]2OP(=O)(O)O)c(=O)n1 [2′-CMP, cytidine 2′-monophosphate free acid]
# output 10

# input Report measured Kd; entry is Nc1ccn([C@@H]2O[C@H](CO)[C@@H](OP(=O)(O)O)[C@H]2O)c(=O)n1 [3′-CMP, cytidine 3′-monophosphate free acid]
# output 130
